# System Under Test: T1, monovalent hVISTA-ECD (human VISTA extracellular domain with His tail) (human, UniProt Q9H7M9 33-193)
# T1 construct: analyte flowed over captured antibody; also called huVISTA-His
# T1 sequence (Q9H7M9 other isoform, or with tags, fused parts or gaps limits assumed): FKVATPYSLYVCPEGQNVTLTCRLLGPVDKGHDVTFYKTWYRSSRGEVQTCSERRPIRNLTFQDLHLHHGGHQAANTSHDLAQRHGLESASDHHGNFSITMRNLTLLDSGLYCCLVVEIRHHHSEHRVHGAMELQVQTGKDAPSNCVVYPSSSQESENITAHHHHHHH
# Measurement Protocol: SPR, pH 6.0, average
Property Name: kon (M⁻¹ s⁻¹)
Answers are plain numbers, in M⁻¹ s⁻¹.

Request: Looking for the measured kon of P1-071801 (P1-070976_E97P) (antibody, human IgG1, kappa, V domains shown, IgG1.3) VH: QVQLVESGGGLVKPGGSLRLSCAASGFPFSDYYMSWIRQAPGKGLEWVSWISNSGEPIYYADSVKGRFTISRDNAKNSLYLQMNSLRAEDTAVYYCARHEPGWEFDLWGRGTLVTVSS VL: EIVLTQSPATLSLSPGERATLSCRASQSVSSYLAWYQQKPGQAPRLLIYDASNRATGIPARFSGSGSGTDFTLTISSLEPEDFAVYYCQQRNNWPRTFGQGTKVEIKR , can you help?
Result: 460000
